- experiment: Metabolic stability in mouse liver microsomes assessed as intrinsic clearance
- Type: ADME, Microsome
- experimental context: read-out: CLH
// reported microsomal CLint for each item listed
observation type: microsomal CLint (µL/min/mg)

- O=C(NC1CCS(=O)(=O)C1)c1ccc(-n2nc(-c3ccccc3O)nc2-c2ccccc2O)cc1 (stereo not drawn): 10.9
- O=C(O)c1ccc(-n2nc(-c3ccccc3O)nc2-c2ccccc2O)cc1 [DEFERASIROX]: 5.94
- Cc1ncc2n1-c1ccc(Cl)cc1C(c1ccccc1F)=NC2 [MIDAZOLAM]: 742

----------
- System: Cryptococcus neoformans
- experiment: Antifungal activity against Cryptococcus neoformans BJ3 assessed as reduction in fungal growth incubated for 72 hrs by broth microdilution method
- Format: functional
# MIC annotations
observation type: MIC (µg/mL)

- C[C@@H]1[C@H](O)[C@@H](C)/C=C/C=C/C=C/C=C/C=C/C=C/C=C/[C@H](O[C@@H]2O[C@H](C)[C@@H](O)[C@H](N)[C@@H]2O)C[C@@H]2O[C@](O)(C[C@@H](O)C[C@@H](O)[C@H](O)CC[C@@H](O)C[C@@H](O)CC(=O)O[C@H]1C)C[C@H](O)[C@H]2C(=O)O: 2
- O=C(O)c1ccc(-n2nc(-c3ccccc3O)nc2-c2ccccc2O)cc1: 8
- O=C(NC1CCS(=O)(=O)C1)c1ccc(-n2nc(-c3ccccc3O)nc2-c2ccccc2O)cc1 (centres undefined): 0.5
- OC(Cn1cncn1)(Cn1cncn1)c1ccc(F)cc1F: 8

----------
Catalogue of compounds with associated MIC
- experiment: Antifungal activity against Cryptococcus gattii VGI WM178 assessed as reduction in fungal growth incubated for 72 hrs by broth microdilution method
- Format: functional
observation type: MIC (µg/mL)

- O=C(NC1CCS(=O)(=O)C1)c1ccc(-n2nc(-c3ccccc3O)nc2-c2ccccc2O)cc1 (centres undefined): 0.25
- OC(Cn1cncn1)(Cn1cncn1)c1ccc(F)cc1F [FLUCONAZOLE]: 16
- O=C(O)c1ccc(-n2nc(-c3ccccc3O)nc2-c2ccccc2O)cc1 [DEFERASIROX]: 8
- C[C@@H]1[C@H](O)[C@@H](C)/C=C/C=C/C=C/C=C/C=C/C=C/C=C/[C@H](O[C@@H]2O[C@H](C)[C@@H](O)[C@H](N)[C@@H]2O)C[C@@H]2O[C@](O)(C[C@@H](O)C[C@@H](O)[C@H](O)CC[C@@H](O)C[C@@H](O)CC(=O)O[C@H]1C)C[C@H](O)[C@H]2C(=O)O [AMPHOTERICIN B]: 1

----------
- experiment: Antifungal activity against Cryptococcus gattii VGI SCZ20031 assessed as reduction in fungal growth incubated for 72 hrs by broth microdilution method
- Type: functional
The molecules listed here are annotated with their MIC.
observation type: MIC (µg/mL)

• OC(Cn1cncn1)(Cn1cncn1)c1ccc(F)cc1F [FLUCONAZOLE] = 4
• O=C(O)c1ccc(-n2nc(-c3ccccc3O)nc2-c2ccccc2O)cc1 [DEFERASIROX] = 2
• C[C@@H]1[C@H](O)[C@@H](C)/C=C/C=C/C=C/C=C/C=C/C=C/C=C/[C@H](O[C@@H]2O[C@H](C)[C@@H](O)[C@H](N)[C@@H]2O)C[C@@H]2O[C@](O)(C[C@@H](O)C[C@@H](O)[C@H](O)CC[C@@H](O)C[C@@H](O)CC(=O)O[C@H]1C)C[C@H](O)[C@H]2C(=O)O [AMPHOTERICIN B] = 1
